# Test system: OVCAR-5 ovarian
# EXPERIMENT_NOTES: NCI tumour cell line growth inhibition, 48 h
Reported TGI values for the following compounds.

COMPOUND	TGI
O=C(c1ccco1)C1CC(c2c(O)ccc3ccccc23)=NN1 (stereo not given)	36.3 µM
CO/N=C(/C)c1cccc(Nc2cc(-c3ccccc3)nc3ccc(OC)cc23)c1	37.3 µM
O=C(O)CN(c1ccccc1)S(=O)(=O)c1ccc([N+](=O)[O-])cc1	> 100 µM
COc1cc(OCc2ccc3nc(OC)c(OC)nc3c2)cc(OC)c1OC	> 10 µM
COC(=O)[C@H](Cc1ccccc1)NC(=O)c1ccc(CNC(=O)/C=C/c2cccc(Oc3ccccc3)c2)cc1	> 100 µM

# ---- query compound ----
Complete the entry with TGI for "O=c1nc(-c2ccccc2)cc(-c2ccccc2O)[nH]1"
> 100 µM

---

Reported TGI values for the following molecules.
# System: SW-620 colon
# EXPERIMENT_NOTES: NCI tumour cell line growth inhibition, 48 h

MOLECULE	TGI
CC/C(Cl)=N\OC(=O)Nc1ccc(F)c([N+](=O)[O-])c1	33.6 µM
COc1cc2c(cc1OC)C13CC[N+]4(C)CC5=CCOC6CC(=O)N2C1C6C5CC34[O-] (stereo not given)	> 100 µM
COc1ccccc1N1CCN(CCCNC(=O)c2cc(Cl)c(N)c(Cl)c2)CC1	> 100 µM

# ---- query molecule ----
Complete the entry with TGI for "C[C@]12CC[C@@H]3c4ccc(O)c([N+](=O)[O-])c4CC[C@H]3[C@@H]1CC[C@@H]2NS(=O)(=O)c1cccc(Br)c1"
9.42 µM

---

# Tested on: OVCAR-3 ovarian
# EXPERIMENT_NOTES: NCI tumour cell line growth inhibition, 48 h
Reported GI50 values for the following compounds.

Below, 5 compounds whose answers are already recorded.
COMPOUND	MEASUREMENT
O=c1[nH]c(=O)n([C@H]2CCCO2)cc1F	1650 µM
O=C(N/N=C/c1ccc([N+](=O)[O-])o1)c1ccc(O)cc1	8.33 µM
CCCCCc1ccc(S(=O)(=O)Nc2cc(-c3csc(NC(C)=O)n3)ccc2N2CCN(C)CC2)cc1	4.92 µM
O=C(OCc1ccc2c(Cl)cc(Cl)c(O)c2n1)N1CCN(C(=O)c2cc3cc(F)ccc3[nH]2)CC1	0.501 µM
C[C@H]1CCC/C=C/[C@@H]2C[C@H](O)C[C@H]2[C@H](O)[C@@H](SCC(O)CO)CC(=O)O1 (stereo partly specified)	22.3 µM

# ---- query compound ----
Complete the entry with GI50 for "Cn1cc(-c2ccc(-c3cncc(Cl)c3N3CCC4(CCNC4=O)CC3)cc2)cn1"
34.3 µM

---

# System: OVCAR-3 ovarian
# EXPERIMENT_NOTES: NCI tumour cell line growth inhibition, 48 h
METRIC_NAME: TGI (µM)
Just the number please, in µM, no unit attached.

COMPOUND	TESTED_TARGET	U	MEASUREMENT
O=C(N/N=C/c1ccc([N+](=O)[O-])o1)c1ccc(O)cc1	OVCAR-3 ovarian	µM	36.1
COC(=O)c1cc(/C=C/c2ccc(S(N)(=O)=O)cc2)ccc1O	OVCAR-3 ovarian	µM	62.7
CC(C)(C)OC(=O)C1C(=O)NC(=O)CC1C(COCc1ccccc1)OCc1ccccc1 (stereo not drawn)	OVCAR-3 ovarian	µM	46.3
COc1ccc(Cc2cnc(NC(=O)c3ccc4c(c3)OCCO4)s2)cc1	OVCAR-3 ovarian	µM	0.0658

Complete the entry with TGI for COC(=O)C1OC(O[C@H]2CC[C@]3(C)[C@H]4CC=C5[C@@H]6CC(C)(C)CC[C@]6(C(=O)OC6OCC(O)C(O)C6OC6OC(C)C(OC7OCC(OC8OCC(O)C(O)C8O)C(O)C7O)C(O)C6O)[C@H](O)C[C@@]5(C)[C@]4(C)CC[C@H]3C2(C)C)C(O)C(O)C1O (stereo partly drawn)
20.9

---

# Test system: PC-3 prostate
# EXPERIMENT_NOTES: NCI tumour cell line growth inhibition, 48 h
Reported TGI values for the following molecules.

MOLECULE	MEASUREMENT
COc1ccc(N=NC(=Nc2ccc(F)cc2)c2ccc(N(CCC#N)CCC#N)cc2)cc1	58.9 µM

Complete the entry with TGI for "COc1ccc(N=C2C(=S)N(c3ccc(OC)cc3)/C(=N/S(=O)(=O)c3ccccc3)N2c2ccccc2)cc1"
11.1 µM

Complete the entry with TGI for "Cc1cc2nc(-c3cc(C(C)(C)C)c(O)c(C(C)(C)C)c3)[nH]c2cc1C"
> 100 µM

Complete the entry with TGI for "c1csc(-c2c3ccc(=[N+]4CCCCC4)cc-3oc3cc(N4CCCCC4)ccc23)c1"
0.177 µM

Complete the entry with TGI for "Cc1c2ccncc2c(C)c2c1[nH]c1ccccc12"
8.55 µM

Complete the entry with TGI for "COc1ccc(Cc2cnc(NC(=O)c3ccc4c(c3)OCCO4)s2)cc1"
> 100 µM

Complete the entry with TGI for "COc1ccc2c(c1)CCN=C2c1ccccc1CCCCl"
> 100 µM

Complete the entry with TGI for CCN1C(=O)N(CC)C2Nn3c(s/c(=C4\C(=O)N(C)c5ccccc54)c3=O)=NC21 (configuration not stated)
> 100 µM

Complete the entry with TGI for "COC(=O)C1(Cc2ccc3c(c2)CCC3)Cc2cc3c(cc2C1)CCC3"
> 100 µM

Complete the entry with TGI for "Cc1cn([C@H]2C[C@](C)(CO)N(C)O2)c(=O)[nH]c1=O"
> 100 µM

Complete the entry with TGI for "c1ccc(-c2cnc(-c3ccc(-c4ncc(-c5ccccc5)o4)cc3)o2)cc1"
> 100 µM

Complete the entry with TGI for "N#CCCN(CCC#N)c1ccc(/C=C2\SC(=S)NC2=O)cc1Br"
> 100 µM

Complete the entry with TGI for "CN1COCc2cc3cc4c(cc3nc21)OCCO4"
> 100 µM

Complete the entry with TGI for "Nc1ccc2[nH]cc(CCC(=O)O)c2c1"
> 100 µM

Complete the entry with TGI for "CC1(C)[C@@H](Cn2cnc3c(Cl)nc(N)nc32)CC[C@@]1(C)CO"
> 100 µM

Complete the entry with TGI for "CCOC(CN(C)C(=S)Nc1cccc2ccccc12)OCC"
> 10 µM

Complete the entry with TGI for "c1ccc(C2=Nn3c(CCCCCCCCc4nnc5n4N=C(c4ccccc4)CS5)nnc3SC2)cc1"
> 100 µM

Complete the entry with TGI for "Cc1ccc(S(=O)(=O)NC(=O)NC2=NC(C)(C)N(c3ccc(Cl)c(Cl)c3)C(N)=N2)cc1"
> 100 µM

Complete the entry with TGI for COC(=O)C1=C(C)NC(C)=C([N+](=O)[O-])C1c1cccc(N=O)c1 (configuration not stated)
32.9 µM

Complete the entry with TGI for "O=C(CSC(c1ccccc1)c1ccccc1)N/N=C/c1ccco1"
9 µM

Complete the entry with TGI for O=C1CCCc2cc3c(cc21)CC1(C3)Cc2ccc3c(c2C1)C(=O)CCC3 (configuration not stated)
> 100 µM

Complete the entry with TGI for "O=C(NO)c1ccc(CN(c2cnccn2)c2cnccn2)cc1"
31.4 µM

---

Reported TGI values for the following molecules.
# System: HCT-15 colon
# EXPERIMENT_NOTES: NCI tumour cell line growth inhibition, 48 h

Below, 2 molecules whose answers are already recorded.
MOLECULE	MEASUREMENT
CCC(=O)Nc1ccc(N=NN(C)C)cc1	> 100 µM
COc1ccccc1N1CCN(CCCNC(=O)c2cc(Cl)c(N)c(Cl)c2)CC1	> 100 µM

Complete the entry with TGI for "COc1ccc2c3c(Nc4ccc(/C(C)=N/O)cc4)[nH]c4ccccc4c-3c(N=O)c2c1"
4.56 µM

Complete the entry with TGI for COc1ccc2c(c1)C(C)Cc1c(ncnc1-n1cnc3cc(C)ccc31)N2C (stereo not drawn)
12.9 µM

Complete the entry with TGI for "C=C1CC[C@@H](C(C)C)C[C@@H]2[C@H]([C@H](O)C[C@]2(C)O)[C@@]2(C)CC[C@@H]1O2"
27.7 µM

Complete the entry with TGI for "CC(=O)OCCOCNC(=S)N/N=C/c1ccc(Br)s1"
> 100 µM

Complete the entry with TGI for "COc1ccc(N=C2C(=S)N(c3ccc(OC)cc3)/C(=N/S(=O)(=O)c3ccccc3)N2c2ccccc2)cc1"
23.5 µM

---

# System: UO-31 renal
# EXPERIMENT_NOTES: NCI tumour cell line growth inhibition, 48 h
Reported TGI values for the following molecules.

Below, 3 molecules whose answers are already recorded.
MOLECULE	TGI
O=C(O)CN(c1ccccc1)S(=O)(=O)c1ccc([N+](=O)[O-])cc1	> 100 µM
CC1=C[C@@H](C)C[C@]2(C)CC[C@H](O2)[C@]23CC[C@](C(=O)O)(C[C@H](O2)[C@@H]2O[C@@](C)(CC2=O)[C@@H](O)[C@H]2CC[C@@]4(CCC[C@@H](O4)[C@H](C)C(=O)O[C@H]4C[C@H]([C@]5(O)OCC[C@H](C)[C@@H]5O)O[C@H]4C=C1)O2)O3	> 10 µM
COc1cc(C(=O)N2CCc3c([nH]c4c([N+](=O)[O-])c(OC)ccc34)C2C)cc(OC)c1OC (centres undefined)	> 100 µM

Complete the entry with TGI for "Clc1ccc(N=CNc2ccc(-c3nc4ccccc4o3)cc2)cc1"
> 100 µM
